- System: CCRIS mutagenicity, Ames/micronucleus/aberration tests
- assayProcedure: CCRIS mutagenicity studies
- testContext: Test System: AMES SALMONELLA TYPHIMURIUM; Strain/Indicator: TA104; Metabolic Activation: NONE; Method: STANDARD PLATE
The source made the active and inactive calls. No rule for the calls is given here.
Classes used: YES = active, NO = inactive

| structureString | testTarget | groupLabel |
| --- | --- | --- |
| Cc1c(N=O)c(=O)n(-c2ccccc2)n1C | CCRIS mutagenicity, Ames/micronucleus/aberration tests | YES |
| Nc1cc([N+](=O)[O-])ccc1-c1ccc([N+](=O)[O-])cc1 | CCRIS mutagenicity, Ames/micronucleus/aberration tests | YES |
| ClCC(Cl)Cl | CCRIS mutagenicity, Ames/micronucleus/aberration tests | NO |
| O=C(O)c1cn(C2CC2)c2cc(N3CCNCC3)c(F)cc2c1=O | CCRIS mutagenicity, Ames/micronucleus/aberration tests | NO |
| CC[C@@]1(O)C[C@H](O[C@H]2C[C@H](N(C)C)[C@H](O)[C@H](C)O2)c2c(cc3c(c2O)C(=O)c2c(O)ccc(O)c2C3=O)[C@H]1C(=O)OC | CCRIS mutagenicity, Ames/micronucleus/aberration tests | YES |

* * *

- Tested on: CCRIS mutagenicity, Ames/micronucleus/aberration tests
- assayProcedure: CCRIS mutagenicity studies
- testContext: Test System: AMES SALMONELLA TYPHIMURIUM; Strain/Indicator: TA100; Metabolic Activation: HAMSTER, LIVER, S-9, AROCLOR 1254 (10%); Method: PREINCUBATION
Active and inactive are the calls of the source. How the calls were made is not given here.
Classes used: t for active, f for inactive

| molecule | groupLabel |
| --- | --- |
| COc1cc2c(cc1OC)[C@@]13CCN4CC5=CCO[C@H]6CC(=O)N2[C@H]1[C@H]6[C@H]5C[C@H]43 | f |
| OC(CCl)CCl | t |
| N#CCO | f |
| Cc1ccc(C)o1 | f |
| ClCC(Cl)Cl | f |
| OCCOCCO | f |
| c1ccc(Nc2ccccc2)cc1 | f |
| S=C1NCCN1 | f |
| CC(N)CN (centres undefined) | f |

* * *

- Test system: CCRIS mutagenicity, Ames/micronucleus/aberration tests
- assayProcedure: CCRIS mutagenicity studies
- testContext: Test System: AMES SALMONELLA TYPHIMURIUM; Strain/Indicator: TA98; Metabolic Activation: RAT, LIVER, S-9; Method: STANDARD PLATE
Calls of active or inactive are those of the source. How the calls were made is not given here.
Classes used: active, inactive

| compound | groupLabel |
| --- | --- |
| CCN(N=O)c1ccccc1 | inactive |
| CCOP(=O)(OCC)Oc1cc(-c2ccccc2)on1 | inactive |
| CC1=CCC(O)(C(C)C)CC1 (configuration not stated) | inactive |
| CN(C)CCCNc1c2ccccc2nc2ccc([N+](=O)[O-])cc12 | active |
| CCCCCC(=O)Cc1cc(O)cc2c1C(=O)Oc1cc(O)c(C(=O)O)c(CCCCC)c1O2 | inactive |
| COc1ccc(N)c(OC)c1 | inactive |
| CC(=O)Nc1ccc(C(=O)CCl)cc1 | inactive |

* * *

- System: CCRIS mutagenicity, Ames/micronucleus/aberration tests
- assayProcedure: CCRIS mutagenicity studies
- testContext: Test System: AMES SALMONELLA TYPHIMURIUM; Strain/Indicator: TA98; Metabolic Activation: RAT, LIVER, S-9, AROCLOR 1254
Active and inactive are the calls of the source. No rule for the calls is given here.
Classes used: 1 (active), 0 (inactive)

| compound | groupLabel |
| --- | --- |
| O=[N+]([O-])c1ccc2ccc3cc4c(c5ccc1c2c35)[C@H](O)[C@@H](O)C=C4 | 1 |
| C=CCOc1ccccc1OCC(O)CNC(C)C (configuration not stated) | 0 |
| Nc1ccc2ccc3c4ccccc4cc4ccc1c2c43 | 1 |
| Nc1ccccc1[N+](=O)[O-] | 0 |
| C#CCO | 0 |
| OCCOCCO | 0 |
| C[As+](C)(C)CC(=O)[O-] | 0 |
| O=[N+]([O-])c1ccc2c(c1)CCc1c-2ccc2c1CCCC2 | 1 |
| CCCCOC(=O)/C=C\C(=O)OCCCC | 0 |
| CCCC(=O)Nc1ccc(OCC(O)CNC(C)C)c(C(C)=O)c1 (configuration not stated) | 0 |
| O=[N+]([O-])c1ccc2ccc3c4c(cc5ccc1c2c53)C=C[C@H](O)[C@H]4O | 1 |
| Oc1cc(Cl)c(O)cc1Cl | 0 |

* * *

- Test system: CCRIS mutagenicity, Ames/micronucleus/aberration tests
- assayProcedure: CCRIS mutagenicity studies
- testContext: Test System: AMES SALMONELLA TYPHIMURIUM; Strain/Indicator: TA98; Metabolic Activation: S-9; Method: STANDARD PLATE
Activity calls are given as the source filed them. No rule for the calls is given here.
Classes used: true = active, false = inactive

| compound | testTarget | groupLabel |
| --- | --- | --- |
| CCOc1ccc(C(C)(C)C)cc1NC(=O)C(=O)Nc1ccccc1CC | CCRIS mutagenicity, Ames/micronucleus/aberration tests | false |
| CC(=O)Nc1snc2ccccc12 | CCRIS mutagenicity, Ames/micronucleus/aberration tests | false |
| Cc1ccc2nsc(NC(=O)C(Cl)Cl)c2c1 | CCRIS mutagenicity, Ames/micronucleus/aberration tests | true |
| O=C(CCl)Nc1snc2ccc(Cl)cc12 | CCRIS mutagenicity, Ames/micronucleus/aberration tests | true |
| Nc1ccc(-c2ccc(N)c(Br)c2)cc1Br | CCRIS mutagenicity, Ames/micronucleus/aberration tests | true |
| Nc1ccc(-c2ccc(N)c(F)c2)cc1F | CCRIS mutagenicity, Ames/micronucleus/aberration tests | true |
| ONc1ccc2c(c1)Cc1ccccc1-2 | CCRIS mutagenicity, Ames/micronucleus/aberration tests | true |
| Cc1cc2ncccc2c2nc(N)n(C)c12 | CCRIS mutagenicity, Ames/micronucleus/aberration tests | true |
| Cc1ccc(C=O)o1 | CCRIS mutagenicity, Ames/micronucleus/aberration tests | false |
| Cc1ccc(C)o1 | CCRIS mutagenicity, Ames/micronucleus/aberration tests | false |
| Nc1ccc(Oc2ccc(Cl)cc2Cl)cc1 | CCRIS mutagenicity, Ames/micronucleus/aberration tests | true |
| C[C@H]1CC[C@@H]2[C@@H](C)[C@H]3C(C[C@H]4[C@@H]5CC=C6C[C@@H](O[C@@H]7O[C@H](CO)[C@H](O)[C@H](O[C@@H]8O[C@H](CO)[C@@H](O)[C@H](O)[C@H]8O)[C@H]7O[C@@H]7O[C@@H](C)[C@H](O)[C@@H](O)[C@H]7O)CC[C@]6(C)C5CC[C@]34C)N2C1 (stereo not given in full) | CCRIS mutagenicity, Ames/micronucleus/aberration tests | false |
| CC(=O)O[C@@H]1C(=O)O[C@H]2[C@@H]1OC(=O)[C@@H]2OC(C)=O | CCRIS mutagenicity, Ames/micronucleus/aberration tests | false |
| CC(C)(c1ccc(OP(O)O)cc1)c1ccc(OP(O)O)cc1 | CCRIS mutagenicity, Ames/micronucleus/aberration tests | false |
| Nc1snc2c(Cl)cc(Cl)cc12 | CCRIS mutagenicity, Ames/micronucleus/aberration tests | false |

* * *

- System: CCRIS mutagenicity, Ames/micronucleus/aberration tests
- assayProcedure: CCRIS mutagenicity studies
- testContext: Test System: AMES SALMONELLA TYPHIMURIUM; Strain/Indicator: TA1538; Metabolic Activation: HAMSTER, LIVER, S-9, AROCLOR 1254 (10%); Method: STANDARD PLATE
Activity calls are given as the source filed them. No rule for the calls is given here.
Classes used: active, inactive

| compound | testTarget | groupLabel |
| --- | --- | --- |
| C[CH2][Ge]([Cl])([CH2]C)[CH2]C | CCRIS mutagenicity, Ames/micronucleus/aberration tests | inactive |
| C[C@]12C=CC(=O)C=C1CC[C@@H]1[C@@H]2C(=O)C[C@@]2(C)[C@H]1CC[C@]2(O)C(=O)CO | CCRIS mutagenicity, Ames/micronucleus/aberration tests | inactive |
| CCN(CC)c1ccc(C(=C2C=CC(=[N+](CC)CC)C=C2)c2ccc(N(CC)CC)cc2)cc1 | CCRIS mutagenicity, Ames/micronucleus/aberration tests | inactive |
| Oc1ccccc1-c1ccccc1 | CCRIS mutagenicity, Ames/micronucleus/aberration tests | inactive |
| CCCCC(CC)COC(=O)c1ccc(N(C)C)c([N+](=O)[O-])c1 (stereo not given) | CCRIS mutagenicity, Ames/micronucleus/aberration tests | active |

* * *

- System: CCRIS mutagenicity, Ames/micronucleus/aberration tests
- assayProcedure: CCRIS mutagenicity studies
- testContext: Test System: AMES SALMONELLA TYPHIMURIUM; Strain/Indicator: TA98; Metabolic Activation: NONE; Method: STANDARD PLATE
The source made the active and inactive calls. How the calls were made is not given here.
Classes used: True (active), False (inactive)

| molecule | groupLabel |
| --- | --- |
| C[C@H]1CC[C@@H]2[C@@H](C)[C@H]3C(C[C@H]4[C@@H]5CC=C6C[C@@H](O[C@@H]7O[C@H](CO)[C@H](O)[C@H](O[C@@H]8O[C@H](CO)[C@@H](O)[C@H](O)[C@H]8O)[C@H]7O[C@@H]7O[C@@H](C)[C@H](O)[C@@H](O)[C@H]7O)CC[C@]6(C)C5CC[C@]34C)N2C1 (stereo partly drawn) | False |
| ONc1cccc(-c2ccccc2)c1 | False |
| C1OCOCO1 | False |
| C=CCOc1ccccc1OCC(O)CNC(C)C (stereo not drawn) | False |
| CC1=CCC(O)(C(C)C)CC1 (stereo not drawn) | False |
| Nc1ccc(CCc2ccccc2)cc1 | False |
| O=Nc1ccc2ccc3cccc4ccc1c2c34 | True |
| O=C1C=Cc2c(ccc3c2ccc2ccccc23)C1=O | False |
| Cc1ccccc1-c1nc2ccccc2o1 | False |
| CC(C)[C@@H]1CC[C@@H](C)C[C@H]1O | False |
| Nc1ccc(O)c([N+](=O)[O-])c1 | False |
| O=CC(O)C(O)C(O)CO (stereo not drawn) | False |
| O=P(O)(O)O | False |
| CC(C)CCCC(C)C1CCC2C3CC=C4CC(OCCO)CCC4(C)C3CCC12C (stereo not drawn) | False |
| CC(=O)OCCCCCCCCONC(=O)c1ccccc1 | True |
| O=C(OCc1ccc(Cl)cc1)c1cccc2cccnc12 | False |
| O=c1cc(-c2ccc(O)cc2)oc2cc(O)cc(O)c12 | False |
| BrCc1cccc2c1-c1cccc3cccc-2c13 | True |
| COC(=O)C12C[C@@]1(C=O)C(C=O)=C[C@@H]1CC(C)(C)C[C@@H]12 (stereo partly drawn) | True |
| C/C=C1\CC2C=CC1C2 (stereo not drawn) | False |
| CCN(CC)c1ccc2c(-c3ccc(S(=O)(=O)O)cc3S(=O)(=O)[O-])c3ccc(=[N+](CC)CC)cc-3oc2c1 | False |
| C[CH2][Ge]([Cl])([CH2]C)[CH2]C | False |
| OC[C@H]1OC(O[C@H]2[C@H](O)[C@@H](O)C(O[C@H]3[C@H](O)[C@@H](O)[C@@H](O)O[C@@H]3CO)O[C@@H]2CO)[C@H](O)[C@@H](O)[C@@H]1O (stereo partly drawn) | False |
